Data credit: patent US20110159019A1

studyTarget: Cytochrome P450 (CYP3A4) (Homo sapiens)
Construct: human liver microsome (0.1 mg protein/mL); from tissue; host or cells: human liver microsomes
Sequence (P08684 whole entry): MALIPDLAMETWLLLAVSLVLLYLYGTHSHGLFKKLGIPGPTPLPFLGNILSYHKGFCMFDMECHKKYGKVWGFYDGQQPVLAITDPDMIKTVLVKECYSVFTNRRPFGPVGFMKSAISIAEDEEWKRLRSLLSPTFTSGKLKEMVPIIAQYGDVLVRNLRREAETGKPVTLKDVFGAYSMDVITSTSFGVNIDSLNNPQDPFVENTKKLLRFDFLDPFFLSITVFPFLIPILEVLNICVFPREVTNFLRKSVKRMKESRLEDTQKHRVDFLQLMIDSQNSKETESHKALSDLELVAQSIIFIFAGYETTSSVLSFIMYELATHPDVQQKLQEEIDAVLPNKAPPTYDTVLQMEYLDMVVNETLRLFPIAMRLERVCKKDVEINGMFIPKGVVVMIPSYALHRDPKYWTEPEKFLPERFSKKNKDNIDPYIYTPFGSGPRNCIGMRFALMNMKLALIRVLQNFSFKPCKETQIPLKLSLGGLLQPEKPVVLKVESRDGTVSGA
experimentalDetails: Measurement of cytochrome P450 (CYP3A4) enzyme inhibition activity in human liver microsome (inhibition tests I and II, midazolam substrate)
Type: in vitro ADME
recordedConditions: inhibition test I: 5 μM test compound, 2 μM midazolam, human liver microsome, 37° C. 20 minutes, no preincubation
reportedMetric: I (%) Remaining Rate I

{"compound": "N#Cc1cnc(NCc2ccccc2Cl)nc1NC[C@]12CC3C[C@H](C1)[C@@H](NCC1CCN(CCO)CC1)[C@@H](C3)C2 (relative stereo)", "reportedMetric": "I (%) Remaining Rate I", "unitSymbol": "%", "number": 92}
{"compound": "N#Cc1cnc(NCc2ccccc2OC(F)(F)F)nc1NC[C@]12CC3C[C@H](C1)[C@H](N[C@H]1CC[C@H](O)CC1)[C@@H](C3)C2 (relative stereo)", "reportedMetric": "I (%) Remaining Rate I", "unitSymbol": "%", "number": 80}
{"compound": "COc1ncccc1CNc1ncc(C#N)c(NC[C@]23CC4C[C@H](C2)[C@@H](NC[C@H]2CC[C@H](CO)CC2)[C@@H](C4)C3)n1 (relative stereo)", "reportedMetric": "I (%) Remaining Rate I", "unitSymbol": "%", "number": 78}
{"compound": "N#Cc1cnc(NCc2ccccc2Cl)nc1NC[C@]12CC3C[C@H](C1)[C@@H](NC1CCN(CCF)CC1)[C@@H](C3)C2 (relative stereo)", "reportedMetric": "I (%) Remaining Rate I", "unitSymbol": "%", "number": 81}
{"compound": "CSc1ncccc1CNc1ncc(C#N)c(NC[C@]23CC4C[C@H](C2)[C@@H](NC[C@H]2CC[C@H](O)CC2)[C@@H](C4)C3)n1 (relative stereo)", "reportedMetric": "I (%) Remaining Rate I", "unitSymbol": "%", "number": 89}
{"compound": "CSc1ccccc1CNc1ncc(C#N)c(NC[C@]23CC4C[C@H](C2)[C@@H](NC[C@H]2CC[C@H](O)CC2)[C@@H](C4)C3)n1", "reportedMetric": "I (%) Remaining Rate I", "unitSymbol": "%", "number": 91}
{"compound": "COc1ccccc1CNc1ncc(C#N)c(NC[C@]23CC4C[C@H](C2)[C@@H](N(C)CCCCO)[C@@H](C4)C3)n1", "reportedMetric": "I (%) Remaining Rate I", "unitSymbol": "%", "number": 77}
{"compound": "N#Cc1cnc(NCc2ccccc2Cl)nc1NC[C@]12CC3C[C@H](C1)[C@@H](NC[C@H]1CC[C@@H](O)CC1)[C@@H](C3)C2 (relative stereo)", "reportedMetric": "I (%) Remaining Rate I", "unitSymbol": "%", "number": 84}
{"compound": "COCCN1CCC(N[C@@H]2[C@@H]3CC4C[C@H]2C[C@@](CNc2nc(NCc5ccccc5Cl)ncc2C#N)(C4)C3)CC1 (relative stereo)", "reportedMetric": "I (%) Remaining Rate I", "unitSymbol": "%", "number": 77}
{"compound": "N#Cc1cnc(NCc2ccccc2OC(F)(F)F)nc1NC[C@]12CC3C[C@H](C1)[C@@H](N[C@H]1CC[C@@H](N)CC1)[C@@H](C3)C2", "reportedMetric": "I (%) Remaining Rate I", "unitSymbol": "%", "number": 75}
{"compound": "N#Cc1cnc(NCc2ccccc2OC(F)(F)F)nc1NC[C@]12CC3C[C@H](C1)[C@@H](NCC1CCNCC1)[C@@H](C3)C2 (relative stereo)", "reportedMetric": "I (%) Remaining Rate I", "unitSymbol": "%", "number": 92}
